- assayed.system: Progesterone receptor (Homo sapiens)
- assay.method.text: qHTS assay to identify small molecule antagonists of the progesterone receptor (PR) signaling pathway (AID 1346795)
- cond: PR-UAS-bla HEK293T, beta-lactamase FRET ratio, 16 h; series mostly up to 92.4 µM
Results filed as inconclusive are left out. Calls of active or inactive are those of the source. Calls follow the shape of the dose curve; as a rule, active = well fitted inhibition curve with a large enough effect in the signal ratio in the repeat runs (not every such curve was filed as active); inconclusive = weak or mixed curves; inactive = flat fitted curve, though single readings scatter; the % refers to the signal ratio.
Outcome codes: 1 (active), 0 (inactive)

[[record]]
compound = "O=C1CCCCCN1"
class_assignment = 0

[[record]]
compound = "OC[C@@H](O)[C@@H](O)[C@H](O)[C@H](O)CO"
class_assignment = 0

[[record]]
compound = "NC(=O)c1ccc([N+](=O)[O-])cc1Cl"
class_assignment = 0

[[record]]
compound = "CC(=O)Oc1ccccc1C(=O)O"
class_assignment = 0

[[record]]
compound = "NC(N)=NC(N)=NCCc1ccccc1"
class_assignment = 0

[[record]]
compound = "OCCCc1ccccc1"
class_assignment = 0

[[record]]
compound = "CCOC(=O)C(C)(C)Oc1ccc(Cl)cc1"
class_assignment = 0

[[record]]
compound = "C#C[C@]1(O)CC[C@H]2[C@@H]3CCC4=CC(=O)CC[C@@H]4[C@H]3CC[C@@]21CC"
class_assignment = 0

[[record]]
compound = "CCCCCCCCCCCCCCCCCC(=O)OCC(O)CO (stereo unspecified)"
class_assignment = 0

[[record]]
compound = "CC1=NN(c2ccccc2)C(=O)C1"
class_assignment = 0

[[record]]
compound = "C=CC(=O)NC(C)(C)CS(=O)(=O)O"
class_assignment = 0

[[record]]
compound = "CCCCOCCOCCOC(C)=O"
class_assignment = 0

[[record]]
compound = "O=c1cc[nH]c(=O)[nH]1"
class_assignment = 0

[[record]]
compound = "Cc1ccc(O)c(-n2nc3ccccc3n2)c1"
class_assignment = 1

[[record]]
compound = "NC(=O)NO"
class_assignment = 0

[[record]]
compound = "CC(=O)c1ccc(S(=O)(=O)NC(=O)NC2CCCCC2)cc1"
class_assignment = 0

[[record]]
compound = "O=C(OCc1ccccc1)c1ccccc1"
class_assignment = 0

[[record]]
compound = "CCCCCCCCOc1ccc(C(=O)c2ccccc2)c(O)c1"
class_assignment = 0

[[record]]
compound = "CCn1cc(C(=O)O)c(=O)c2ccc(C)nc21"
class_assignment = 0

[[record]]
compound = "CC(O)COc1ccccc1 (stereo unspecified)"
class_assignment = 0

[[record]]
compound = "Cc1cnc(NC(=O)C2=C(O)c3ccccc3S(=O)(=O)N2C)s1"
class_assignment = 0

[[record]]
compound = "C/C=C/c1ccc(O)c(OC)c1"
class_assignment = 0

[[record]]
compound = "O=[N+]([O-])c1ccc(O)cc1"
class_assignment = 0

[[record]]
compound = "CCOCCO"
class_assignment = 0

[[record]]
compound = "CC(C)CC(C)CC(O)CC(C)C (stereo unspecified)"
class_assignment = 0

[[record]]
compound = "CC(=O)OC/C=C(C)/C=C/C=C(C)/C=C/C1=C(C)CCCC1(C)C"
class_assignment = 0

[[record]]
compound = "COc1ccccc1O"
class_assignment = 0

[[record]]
compound = "O=C(O)Cc1cccc2ccccc12"
class_assignment = 0

[[record]]
compound = "CC(=O)CCC(C)C"
class_assignment = 0

[[record]]
compound = "COCCOCCOC"
class_assignment = 0

[[record]]
compound = "N[C@@H](Cc1c[nH]c2ccccc12)C(=O)O"
class_assignment = 0


###

- assay.method.text: qHTS assay to test for compound auto fluorescence at 535 nm (green) in HEK293 cells (AID 720680); also: % is scaled to controls: 0 for no effect and ±100 for the full control effect
- cond: green autofluorescence 485/535 nm; series mostly up to 91.3 µM
The source made the active and inactive calls. Calls come from the whole dose curve; as a rule, active = well fitted curve in the direction sought with a large enough effect in the repeat runs; inconclusive = weak or mixed curves; inactive = flat fitted curve, though single readings scatter.
endpoint.label: outcome

[[record]]
smiles_text = "O=C(O)Cc1cccc2ccccc12"
recorded_measurement = "inactive"

[[record]]
smiles_text = "NC(N)=NC(N)=NCCc1ccccc1"
recorded_measurement = "inactive"

[[record]]
smiles_text = "NC(=O)c1ccc([N+](=O)[O-])cc1Cl"
recorded_measurement = "inactive"

[[record]]
smiles_text = "Cc1ccc(O)c(-n2nc3ccccc3n2)c1"
recorded_measurement = "inactive"

[[record]]
smiles_text = "O=c1cc[nH]c(=O)[nH]1"
recorded_measurement = "inactive"

[[record]]
smiles_text = "Cc1c(N(C)C)c(=O)n(-c2ccccc2)n1C"
recorded_measurement = "inactive"

[[record]]
smiles_text = "CC1(C)O[C@@H]2[C@@H](CO[C@@]3(COS(N)(=O)=O)OC(C)(C)O[C@@H]23)O1"
recorded_measurement = "inactive"


###

- assay.method.text: qHTS assay to test for compound auto fluorescence at 590 nm (red) in HEK293 cells (AID 720679); also: % is scaled to controls: 0 for no effect and ±100 for the full control effect
- cond: red autofluorescence 540/590 nm; series mostly up to 91.3 µM
Active and inactive are the calls of the source. The call rests on the fitted dose curve; in most records, active means well fitted curve in the direction sought with a large enough effect in the repeat runs; inconclusive means weak or mixed curves; inactive means flat fitted curve, though single readings scatter.
endpoint.label: outcome

[[record]]
molecule = "N[C@@H](Cc1c[nH]c2ccc(O)cc12)C(=O)O"
endpoint_label = "outcome"
recorded_measurement = "inactive"

[[record]]
molecule = "CC(=O)CCC(C)C"
endpoint_label = "outcome"
recorded_measurement = "inactive"

[[record]]
molecule = "CC(C)(C)CC(C)(C)c1ccc(O)c(-n2nc3ccccc3n2)c1"
endpoint_label = "outcome"
recorded_measurement = "inactive"

[[record]]
molecule = "CCCCCCCC(=O)OCC(O)CO (stereo not drawn)"
endpoint_label = "outcome"
recorded_measurement = "inactive"

[[record]]
molecule = "COc1cc2c(c(OC)c1OC)-c1ccc(OC)c(=O)cc1[C@@H](NC(C)=O)CC2"
endpoint_label = "outcome"
recorded_measurement = "inactive"

[[record]]
molecule = "NC(=O)NO"
endpoint_label = "outcome"
recorded_measurement = "inactive"

[[record]]
molecule = "COC1=CC(=O)C[C@@H](C)[C@]12Oc1c(Cl)c(OC)cc(OC)c1C2=O"
endpoint_label = "outcome"
recorded_measurement = "inactive"

[[record]]
molecule = "CN/C(=C\\[N+](=O)[O-])NCCSCc1ccc(CN(C)C)o1"
endpoint_label = "outcome"
recorded_measurement = "inactive"

[[record]]
molecule = "CCCCNC(=O)NS(=O)(=O)c1ccc(N)cc1"
endpoint_label = "outcome"
recorded_measurement = "inactive"

[[record]]
molecule = "NC(=O)N1c2ccccc2C=Cc2ccccc21"
endpoint_label = "outcome"
recorded_measurement = "inactive"

[[record]]
molecule = "NC(N)=NC(N)=NCCc1ccccc1"
endpoint_label = "outcome"
recorded_measurement = "inactive"

[[record]]
molecule = "CC(C)CC(C)CC(O)CC(C)C (stereo not drawn)"
endpoint_label = "outcome"
recorded_measurement = "inactive"

[[record]]
molecule = "CC(O)COc1ccccc1 (stereo not drawn)"
endpoint_label = "outcome"
recorded_measurement = "inactive"


###

- assay.method.text: qHTS assay to identify small molecule antagonists of the retinoic acid receptor (RAR) signaling pathway (AID 1159552; also: nearly all actives have a fitted effect of over 50% in size)
- cond: C3RL4 RARE luciferase reporter, retinol-stimulated, 6 h; series mostly up to 92.4 µM
Records with an inconclusive call do not appear. The source made the active and inactive calls. Calls follow the shape of the dose curve; as a rule, active = well fitted inhibition curve with a large enough effect in the repeat runs; inconclusive = weak or mixed curves, or effect the other way; inactive = no such curve, though single readings can be large or run the other way.
Outcome codes: Y (active), N (inactive)

[[record]]
compound = "CCCCCCCCOc1ccc(C(=O)c2ccccc2)c(O)c1"
class_assignment = "N"

[[record]]
compound = "Cn1cnc2c1c(=O)[nH]c(=O)n2C"
class_assignment = "N"

[[record]]
compound = "Cc1cccc(C)c1O"
class_assignment = "N"

[[record]]
compound = "NC(=O)NO"
class_assignment = "N"

[[record]]
compound = "O=c1c(-c2ccc(O)cc2)coc2cc(O)cc(O)c12"
class_assignment = "N"

[[record]]
compound = "CC(O)COc1ccccc1 (stereo not drawn)"
class_assignment = "N"

[[record]]
compound = "COCCOCCOC"
class_assignment = "N"

[[record]]
compound = "COc1cc2c(c(OC)c1OC)-c1ccc(OC)c(=O)cc1[C@@H](NC(C)=O)CC2"
class_assignment = "N"

[[record]]
compound = "CCCCOCCOCCOC(C)=O"
class_assignment = "N"

[[record]]
compound = "COC1=CC(=O)C[C@@H](C)[C@]12Oc1c(Cl)c(OC)cc(OC)c1C2=O"
class_assignment = "Y"

[[record]]
compound = "C[C@]12C=CC(=O)C=C1CC[C@@H]1[C@@H]2C(=O)C[C@@]2(C)[C@H]1CC[C@]2(O)C(=O)CO"
class_assignment = "N"

[[record]]
compound = "CCCCCCCCCCCCCCCCCC(=O)OCC(O)CO (stereo not drawn)"
class_assignment = "N"

[[record]]
compound = "CCc1cc(C(N)=S)ccn1"
class_assignment = "N"


###

- assayed.system: Nuclear receptor subfamily 1 group I member 2 (Rattus norvegicus) (UniProt Q9R1A7)
- Sequence (Q9R1A7 whole entry, looked up): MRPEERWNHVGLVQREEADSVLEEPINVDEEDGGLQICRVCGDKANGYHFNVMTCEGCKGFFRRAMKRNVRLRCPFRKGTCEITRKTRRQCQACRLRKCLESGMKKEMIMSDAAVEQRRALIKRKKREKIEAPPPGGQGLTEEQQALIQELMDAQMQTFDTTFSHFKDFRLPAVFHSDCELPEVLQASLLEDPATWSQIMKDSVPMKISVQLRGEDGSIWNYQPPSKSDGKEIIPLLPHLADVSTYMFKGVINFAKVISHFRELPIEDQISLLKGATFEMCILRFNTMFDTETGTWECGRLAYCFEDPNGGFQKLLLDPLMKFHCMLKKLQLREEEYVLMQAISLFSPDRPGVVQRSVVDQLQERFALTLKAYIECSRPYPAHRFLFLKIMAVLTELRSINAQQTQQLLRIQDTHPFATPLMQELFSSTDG
- assay.method.text: Rat pregnane X receptor (rPXR) activation by small molecules, qHTS assay (AID 1346983); also: % is scaled to controls: 0 for no effect and ±100 for the full control effect; nearly all actives have a fitted effect of over 20% in size
- cond: rPXR luciferase reporter cells, One-Glo luminescence, 24 h; stronger effect = higher value
- Excerpt: National Center for Advancing Translational Sciences [NCATS] NIH Chemical Genomics Center [NCGC] U.S. Environmental Protection Agency [EPA] National Institutes of Environmental Health Sciences [NIEHS] National Toxicology Program [NTP] Assay overview: The Pregnane X receptor (PXR), a ligand activated nuclear receptor plays a critical role in the regulation of genes involved in drug metabolism and transporters. […]
Records with an inconclusive call do not appear. Activity calls are given as the source filed them. Calls come from the whole dose curve; as a rule, active = well fitted activation curve with a large enough effect in the repeat runs; inconclusive = weak or mixed curves; inactive = no such curve, though single readings can be large or run the other way.
endpoint.label: max activation

[[record]]
molecule = "O=C(O)Cc1cccc2ccccc12"
recorded_measurement = "-6.88% (inactive)"

[[record]]
molecule = "CC1=NN(c2ccccc2)C(=O)C1"
recorded_measurement = "-4.19% (inactive)"

[[record]]
molecule = "COC(=O)c1ccc(O)cc1"
recorded_measurement = "-1.51% (inactive)"

[[record]]
molecule = "CCN1CCCC1=O"
recorded_measurement = "3.15% (inactive)"

[[record]]
molecule = "O=c1cc[nH]c(=O)[nH]1"
recorded_measurement = "-0.198% (inactive)"

[[record]]
molecule = "C#C[C@]1(O)CC[C@H]2[C@@H]3CCc4cc(O)ccc4[C@H]3CC[C@@]21C"
recorded_measurement = "10.3% (inactive)"

[[record]]
molecule = "CC(C)(C)CC(C)(C)c1ccc(O)c(-n2nc3ccccc3n2)c1"
recorded_measurement = "-2.63% (inactive)"

[[record]]
molecule = "OC[C@@H](O)[C@@H](O)[C@H](O)[C@H](O)CO"
recorded_measurement = "-0.524% (inactive)"

[[record]]
molecule = "C[C@]12C[C@H](O)[C@H]3[C@@H](CCC4=CC(=O)CC[C@@]43C)[C@@H]1CC[C@@H]2C(=O)CO"
recorded_measurement = "-5.48% (inactive)"

[[record]]
molecule = "NC(=O)N/N=C/c1ccc([N+](=O)[O-])o1"
recorded_measurement = "-4.99% (inactive)"

[[record]]
molecule = "NC(=O)c1ccc([N+](=O)[O-])cc1Cl"
recorded_measurement = "2.53% (inactive)"

[[record]]
molecule = "COc1cc(O)c(C(=O)c2ccccc2)cc1S(=O)(=O)O"
recorded_measurement = "-1.72% (inactive)"

[[record]]
molecule = "N[C@@H](Cc1c[nH]c2ccc(O)cc12)C(=O)O"
recorded_measurement = "-0.341% (inactive)"

[[record]]
molecule = "CCCCCCCC(=O)OCC(O)CO (stereo unspecified)"
recorded_measurement = "-5.07% (inactive)"

[[record]]
molecule = "Oc1cccc(O)c1"
recorded_measurement = "-3.43% (inactive)"

[[record]]
molecule = "C#C[C@]1(O)CC[C@H]2[C@@H]3CCC4=CC(=O)CC[C@@H]4[C@H]3CC[C@@]21CC"
recorded_measurement = "-1.1% (inactive)"

[[record]]
molecule = "CCCCC/C(C=O)=C\\c1ccccc1"
recorded_measurement = "-0.992% (inactive)"

[[record]]
molecule = "CCCCCCCCCCCCCC(=O)OC(C)C"
recorded_measurement = "-1.74% (inactive)"

[[record]]
molecule = "CC1(C)O[C@@H]2[C@@H](CO[C@@]3(COS(N)(=O)=O)OC(C)(C)O[C@@H]23)O1"
recorded_measurement = "-4.73% (inactive)"

[[record]]
molecule = "Cc1c(N(C)CS(=O)(=O)O)c(=O)n(-c2ccccc2)n1C"
recorded_measurement = "-2.23% (inactive)"

[[record]]
molecule = "C/C=C/c1ccc(O)c(OC)c1"
recorded_measurement = "6.95% (inactive)"

